B1: Segment polarity protein dishevelled homolog DVL-3, residues 2 to 81; numbered along this chain, Q92997 (parent)
chain: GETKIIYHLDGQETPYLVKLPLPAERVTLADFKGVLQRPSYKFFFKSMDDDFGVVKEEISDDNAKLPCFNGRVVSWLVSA

variants of: B1; experiment: abundance fitness (aPCA) (normalised: wild type 0, dead -1); higher = more abundant; growth selection in yeast, the domain comes from the species named; conditions: Homo sapiens
The following variants are listed with their measured abundance fitness values.
Answer as a number with no unit attached.

Worked examples, 5 variants total:
## Task Look at this variant and give its reported abundance fitness. V54S
## Result -0.082

## Task Ok, now M48H
## Result 0.056

## Task Ok, now L20R
## Result -0.779

## Task Ok, now E25S
## Result -0.115

## Task Ok, now V55Q
## Result 0.106

Could you now consider this next variant?
## Task Look at this variant and give its reported abundance fitness. K19F
## Result -0.215

Origin of the recorded values: the Human Domainome abundance scans (Beltran et al. 2025)
